Biological target: human CXCR3A (Homo sapiens (Human))
Sequence (P49682 whole entry): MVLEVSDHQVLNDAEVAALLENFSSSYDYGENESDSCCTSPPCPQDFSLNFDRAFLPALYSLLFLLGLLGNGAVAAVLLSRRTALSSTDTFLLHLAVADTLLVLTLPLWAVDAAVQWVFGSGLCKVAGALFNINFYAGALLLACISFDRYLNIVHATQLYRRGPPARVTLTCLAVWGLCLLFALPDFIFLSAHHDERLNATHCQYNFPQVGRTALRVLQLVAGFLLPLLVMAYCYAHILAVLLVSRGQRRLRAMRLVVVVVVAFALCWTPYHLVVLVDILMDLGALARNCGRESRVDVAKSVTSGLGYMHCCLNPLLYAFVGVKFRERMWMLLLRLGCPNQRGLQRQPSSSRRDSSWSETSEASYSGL
Assay: FLIPR assay (inhibition of CXCL10-induced calcium signal)
Conditions: engineered CHO-K1 cells expressing human CXCR3A coupled to Galpha(16); Fluo-4-AM; CXCL10 agonist 20 nM; mean values where determined several times
Protocol: The bioactivity of compounds is tested in a fluorometric imaging plate reader (FLIPR: Molecular Devices) using engineered CHO-K1 cells expressing the human CXCR3A (GenBank: AY242128) coupled to a G protein (Galpha(16)). […] Following basal readings, 10 microliter CXCL10 agonist at a concentration of 20 nM (from Peprotech) is added, again using the FLIPR instrument. Changes in fluorescence are monitored before and after addition of the test compounds. […]
pIC50: −log10 of the molar value.
Measured Endpoint: pIC50

Structure String	Assay Target	pIC50
Cc1nc(C)n(CC(=O)N2CCN(c3ccc(C(F)(F)F)c4c3CN(c3cnc(C5CC5)nc3)CC4)C[C@H]2C)n1	human CXCR3A (Homo sapiens (Human))	8.36
Cc1cc(C)n(CC(=O)N2CCN(c3ccc(C(F)(F)F)c4c3CN(c3nc5ccccc5s3)CC4)C[C@H]2C)n1	human CXCR3A (Homo sapiens (Human))	7.58
COc1ccccc1N1CCc2cccc(N3CCN(C(=O)Cn4cnc5cccnc54)[C@H](C)C3)c2C1	human CXCR3A (Homo sapiens (Human))	7.21
COc1nccc(N2CCc3cccc(N4CCN(C(=O)Cn5cnc6cccnc65)[C@H](C)C4)c3C2)n1	human CXCR3A (Homo sapiens (Human))	7.55
Cc1nc(C)n(CC(=O)N2CCN(c3ccc(C(F)(F)F)c4c3CN(c3nc(C(F)(F)F)cs3)CC4)C[C@H]2C)n1	human CXCR3A (Homo sapiens (Human))	8.08
C[C@@H]1CN(c2cccc3c2CN(c2ccc(F)cn2)CC3)CCN1C(=O)Cn1cnc2cccnc21	human CXCR3A (Homo sapiens (Human))	8.10
CCOc1ncc(N2CCc3cccc(N4CCN(C(=O)Cn5cnc6cccnc65)[C@H](C)C4)c3C2)cn1	human CXCR3A (Homo sapiens (Human))	8.33
Cc1cc(C)n(CC(=O)N2CCN(c3ccc(C(F)(F)F)c4c3CN(c3nc(C(C)(C)C)cs3)CC4)C[C@H]2C)n1	human CXCR3A (Homo sapiens (Human))	7.69

I: C[C@@H]1CN(c2cccc3c2CN(C(=O)C2CCCC2)CC3)CCN1C(=O)Cn1cnc2cccnc21
II: CC(C)Oc1ncc(N2CCc3cccc(N4CCN(C(=O)Cn5cnc6cccnc65)[C@H](C)C4)c3C2)cn1
III: O=C(Cn1cnc2cccnc21)N1CCN(c2cccc3c2CN(S(=O)(=O)Cc2ccccc2)CC3)CC1
IV: Cc1ncc(N2CCc3cccc(N4CCN(C(=O)Cn5cnc6cccnc65)[C@H](C)C4)c3C2)cn1
Hey, quick one: sort these by pIC50, largest value first please. Your answer should be the labels, listed in the requested order.
II, IV, I, III
(II: 8.32, IV: 7.90, I: 7.66, III: 7.18)

P: C[C@@H]1CN(c2ccc(C(F)(F)F)c3c2CN(C(=O)OCc2ccccc2)CC3)CCN1C(=O)Cn1cnc2cccnc21
Q: CCOc1ncc(N2CCc3c(C(F)(F)F)ccc(N4CCN(C(=O)Cn5cnc6cccnc65)[C@H](C)C4)c3C2)cn1
Dear colleague, could you let me know whether P or Q has the lower recorded pIC50? Thanks. Lab note: record the label of whichever item you select.
P
